# Test target: human GPR120 (Homo sapiens, UniProt Q5NUL3)
# Construct: Flag (DYKDDDDK) (N); host or cells: HEK293 cells co-expressing Gqi5
# Sequence (Q5NUL3 whole entry): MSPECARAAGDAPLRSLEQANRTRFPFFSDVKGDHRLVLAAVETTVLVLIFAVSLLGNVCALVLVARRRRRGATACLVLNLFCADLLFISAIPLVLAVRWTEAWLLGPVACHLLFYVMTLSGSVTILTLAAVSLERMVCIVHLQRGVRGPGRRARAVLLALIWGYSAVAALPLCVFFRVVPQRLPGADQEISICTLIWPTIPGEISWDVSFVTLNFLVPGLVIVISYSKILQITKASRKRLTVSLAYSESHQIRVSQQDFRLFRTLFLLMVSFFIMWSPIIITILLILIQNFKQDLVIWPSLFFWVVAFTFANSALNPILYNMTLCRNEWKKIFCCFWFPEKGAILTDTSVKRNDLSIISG
# Experiment notes: Intracellular Ca2+ assay (FLIPR Calcium 4, Flexstation) in human GPR120 stable cell line
# Type: cell-based
# Measurement conditions: % activity at 2.5 μM compared to the maximal activity of the compound of Example 25 at 2.5 μM; HEK293 cells co-expressing Gqi5
Observation type: % Activity (Ex. 25 Reference Compound) (%)

Below, each entry is followed by its recorded % Activity (Ex. 25 Reference Compound) result.
[[record]]
compound = "CC(Cc1ccc(OCc2cc(F)cc3c2OCOC3)cc1)C(=O)O (stereo not drawn)"
observation_type = "% Activity (Ex. 25 Reference Compound)"
value_observed = 79.58

[[record]]
compound = "CC(Cc1ccc(OCc2ccc(F)c3c2CC(C)(C)O3)cc1)C(=O)O (stereo not drawn)"
observation_type = "% Activity (Ex. 25 Reference Compound)"
value_observed = 121.29

[[record]]
compound = "CC1(C)Cc2cc(F)cc(COc3ccc4c(c3)CCCC4CC(=O)O)c2O1 (stereo not drawn)"
observation_type = "% Activity (Ex. 25 Reference Compound)"
value_observed = 106.81

[[record]]
compound = "COc1cc(OCc2cc(Cl)cc3c2OC2(CCCC2)C3)ccc1CCC(=O)O"
observation_type = "% Activity (Ex. 25 Reference Compound)"
value_observed = 148.21


1 = CC1(C)Cc2cc(F)cc(COc3ccc4cc(C(=O)O)ccc4c3)c2O1
2 = CC(=O)Nc1cc(COc2ccc(CC(C)C(=O)O)cc2)c2c(c1)CC(C)(C)O2 (stereo not drawn)
// which entry reports the smaller % Activity (Ex. 25 Reference Compound), 1 or 2 ? Give the chosen item's label as your response.
2
